The reported numbers originate from patent US8895695B2.

tested on: human red blood cells (hRBC); assay: Hemolysis; format: cell-based
Bridge positions count the residues as written; N and C are the ends. Square brackets hold non-standard residues; d marks the D form. Peptide text beside a SMILES is read from it. 2Nal = N[C@@H](Cc1ccc2ccccc2c1)C(=O)O; Cit = NC(=O)NCCC[C@H](N)C(=O)O; Dab = NCC[C@H](N)C(=O)O
Please go through the items and note down their Hemolysis at 100 μM.
Unit % implied. Number only.

Tell me the measured Hemolysis at 100 μM of N=C(N)NCCC[C@@H]1NC(=O)[C@H](Cc2ccccc2)NC(=O)[C@H](CCCNC(N)=O)NC(=O)[C@H](CCCNC(=N)N)NC(=O)[C@H](Cc2ccc(O)cc2)NC(=O)[C@@H]2CCCN2C(=O)[C@H]2CCCN2C(=O)[C@H](CCCCN)NC(=O)[C@H](CCCNC(N)=O)NC(=O)[C@H](Cc2ccc(O)cc2)NC(=O)[C@H](Cc2ccccc2)NC(=O)[C@H](Cc2ccc3ccccc3c2)NC(=O)[C@H](CCCNC(=N)N)NC(=O)[C@H](CCCNC(=N)N)NC(=O)[C@H]2CCCN2C(=O)CNC1=O [compound 38] (cyclo(YR[Cit]FRG[dP]RR[2Nal]FY[Cit]K[dP]P)) , please.
0.3

Tell me the measured Hemolysis at 100 μM of N=C(N)NCCC[C@@H]1NC(=O)[C@@H]2CSSC[C@H](NC(=O)[C@H](Cc3c[nH]c4ccccc34)NC(=O)[C@H](CCCNC(=N)N)NC(=O)[C@H](CCCNC(=N)N)NC(=O)[C@H]3CCCN3C(=O)CNC1=O)C(=O)N[C@@H](Cc1ccc(O)cc1)C(=O)N[C@@H](CCCNC(N)=O)C(=O)N[C@@H](CCCCN)C(=O)N1CCC[C@@H]1C(=O)N1CCC[C@H]1C(=O)N[C@@H](Cc1ccccc1)C(=O)N[C@@H](CCCNC(=N)N)C(=O)N[C@@H](CCCNC(N)=O)C(=O)N2 [Ex. 107] (cyclo(FR[Cit]CRG[dP]RRWCY[Cit]K[dP]P); disulfide 4-11) , please.
0.4

Tell me the measured Hemolysis at 100 μM of N=C(N)NCCC[C@@H]1NC(=O)[C@@H]2CSSC[C@H](NC(=O)[C@H](Cc3ccc4ccccc4c3)NC(=O)[C@H](CCCNC(=N)N)NC(=O)[C@H](CCCNC(=N)N)NC(=O)[C@H]3CCCN3C(=O)CNC1=O)C(=O)N[C@@H](Cc1ccc(O)cc1)C(=O)N[C@@H](CCC(N)=O)C(=O)N[C@@H](CCCCN)C(=O)N1CCC[C@@H]1C(=O)N1CCC[C@H]1C(=O)N[C@@H](Cc1ccc(O)cc1)C(=O)N[C@@H](CCCNC(=N)N)C(=O)N[C@@H](CCCNC(=N)N)C(=O)N2 [Ex. 69] (cyclo(YRRCRG[dP]RR[2Nal]CYQK[dP]P); disulfide 4-11) , please.
0.1

Tell me the measured Hemolysis at 100 μM of N=C(N)NCCC[C@@H]1NC(=O)[C@@H]2CSSC[C@H](NC(=O)[C@H](Cc3c[nH]c4ccccc34)NC(=O)[C@H](CCCNC(=N)N)NC(=O)[C@H](CCN)NC(=O)[C@H]3CCCN3C(=O)CNC1=O)C(=O)N[C@@H](Cc1ccc(O)cc1)C(=O)N[C@@H](CCC(N)=O)C(=O)N[C@@H](CCCCN)C(=O)N1CCC[C@@H]1C(=O)N1CCC[C@H]1C(=O)N[C@@H](Cc1ccc(O)cc1)C(=O)N[C@@H](CCCNC(=N)N)C(=O)N[C@@H](CCCNC(N)=O)C(=O)N2 [Ex. 109] (cyclo(YR[Cit]CRG[dP][Dab]RWCYQK[dP]P); disulfide 4-11) , please.
0
